Listing of entries alongside the reported Population Pyknosed Nuclei (%).
system: HEK-293T; assay: Multiplex assay against HEK293T; type: toxicity, cell-based; conditions: human, 24 h, 10 µM, compound concentration 10 uM, replicate 1
Answer format: numeric, % implied, no suffix.

*Q* Consider the compound CC(=O)c1cc(-c2cc(C(=O)NC3CC3)ccc2C)c2ncccn12 . State its measured Population Pyknosed Nuclei (%).
*A* 49

*Q* Note down Population Pyknosed Nuclei (%) recorded for CCc1cc2c(cc1CC)CC(NC[C@H](O)c1ccc(O)c3[nH]c(=O)ccc13)C2
*A* 65

*Q* Determine from records and report Population Pyknosed Nuclei (%) for Nc1nc2c(c(N3CCNCC3)n1)CCC1=C2[C@@H]2CCCC[C@@H]2O1
*A* 51

*Q* Name the recorded Population Pyknosed Nuclei (%) of the compound listed here: CCn1c(-c2nonc2N)nc2cnc(Oc3cccc(NC(=O)c4ccc(OCCN5CCOCC5)cc4)c3)cc21 [GSK-269962A]
*A* 56

*Q* Indicate the recorded Population Pyknosed Nuclei (%) value for this compound: c1ccc2oc(-c3csc(C4CCN(Cc5nc6ncccc6[nH]5)CC4)n3)cc2c1
*A* 19

*Q* Output measured Population Pyknosed Nuclei (%) for this item: COc1cc2c(Nc3ccc(NC(=O)c4ccccc4)cc3)ncnc2cc1OCCCN1CCOCC1
*A* 11

*Q* Supply measured Population Pyknosed Nuclei (%) of COc1ccc(NS(=O)(=O)c2sc3ccc(Cl)cc3c2C)cc1N1CCNCC1.Cl in your reply.
*A* 54

*Q* Read off the recorded Population Pyknosed Nuclei (%) for O=C(O)c1ccc2cc(-c3ccc(O)c(C45CC6CC(CC(C6)C4)C5)c3)ccc2c1
*A* 40

# context switch: different compound, same Population Pyknosed Nuclei (%)
*Q* Fill in Population Pyknosed Nuclei (%) for record CC(C)N1CCC(C)(C)c2cc(C#Cc3ccc(C(=O)O)cc3)ccc21
*A* 4

====

test system: U2OS; test: Multiplex assay against U2OS; assay type: toxicity, cell-based; conditions: human, 24 h, 10 µM, compound concentration 10 uM, replicate 2
Label key: 1 means Population Mitochondria Different-Phenotype (%) under 60%; -1 means Population Mitochondria Different-Phenotype (%) of 60% or more.

These recorded examples may help you get a feel for the data.
*Q* Threshold test, Population Mitochondria Different-Phenotype (%) < 60%: Cl.Cl.NC1(c2ccc(-c3nc4ccn5c(=O)[nH]nc5c4cc3-c3ccccc3)cc2)CCC1
*A* 1

*Q* API: query returns whether the compound falls strictly under 60% in Population Mitochondria Different-Phenotype (%). Query: CNc1oc(-c2cccc3ccccc23)nc1C#N
*A* 1

*Q* Identify whether the compound CCCn1c(=O)c2[nH]c(C34CC5CC(CC3C5)C4)nc2n(CCC)c1=O [ROLOFYLLINE] records Population Mitochondria Different-Phenotype (%) below 60%.
*A* -1

*Q* Does this compound meet the criterion Population Mitochondria Different-Phenotype (%) < 60%? Cl.Cl.Nc1ncnc2c1c(-c1cccc(OCc3ccccc3)c1)cn2[C@H]1C[C@@H](CN2CCC2)C1
*A* -1

*Q* Strictly below 60%: is that where Population Mitochondria Different-Phenotype (%) of Cc1cn(-c2cc(NC(=O)c3ccc4c(c3)CN(c3cncnc3)C[C@@H]4C)cc(C(F)(F)F)c2)cn1 sits?
*A* 1

Next:
*Q* A record lists CCC(=O)O[C@]1(C(=O)SCF)[C@H](C)C[C@H]2[C@@H]3C[C@H](F)C4=CC(=O)C=C[C@]4(C)[C@@]3(F)[C@@H](O)C[C@@]21C [FLUTICASONE PROPIONATE] . Is its Population Mitochondria Different-Phenotype (%) below 60%?
*A* 1

*Q* Dear colleague, could you confirm whether Population Mitochondria Different-Phenotype (%) of COc1cc2c(NC3CCN(C(C)C)CC3)nc(N3CCC(F)(F)CC3)nc2cc1OCCCN1CCCC1 falls below 60%? Thanks.
*A* -1

*Q* I wonder whether O=C(O)c1ccc2cc(-c3ccc(O)c(C45CC6CC(CC(C6)C4)C5)c3)ccc2c1 [O-DEMETHYLATED ADAPALENE] has Population Mitochondria Different-Phenotype (%) below 60%. Can you tell?
*A* 1

====

system: U2OS; experiment: Multiplex assay against U2OS; format: toxicity, cell-based; settings: human, 24 h, 10 µM, compound concentration 10 uM, replicate 2
A collection of compounds and their measured Population Membrane Permeable-Phenotype (%)
# unit: % | format: bare number

// solved cases for Population Membrane Permeable-Phenotype (%) follow
*Q* Complete the entry with Population Membrane Permeable-Phenotype (%) for COc1ccc(NS(=O)(=O)c2sc3ccc(Cl)cc3c2C)cc1N1CCNCC1.Cl
*A* 55

*Q* State, in one line, measured Population Membrane Permeable-Phenotype (%) of CCc1cc2c(cc1CC)CC(NC[C@H](O)c1ccc(O)c3[nH]c(=O)ccc13)C2 [INDACATEROL]
*A* 59

*Q* Note down Population Membrane Permeable-Phenotype (%) recorded for CCOc1cc2ncc(C#N)c(Nc3ccc(OCc4cccc(F)c4)c(Cl)c3)c2cc1NC(=O)/C=C/CN(C)C [HKI-357]
*A* 23

Further cases:
*Q* Give a short answer stating reported Population Membrane Permeable-Phenotype (%) for CNC(=O)c1cc(Oc2ccc(NC(=O)Nc3cc(C(C)(C)C)nn3-c3ccc4ncccc4c3)c(F)c2)ccn1 [REBASTINIB] .
*A* 30

*Q* Fill in reported Population Membrane Permeable-Phenotype (%) for this entry: CN(C)CCOc1ccc(-c2nc(-c3ccncc3)c(-c3ccc4c(c3)CC/C4=N\O)[nH]2)cc1 [SB590885]
*A* 8

*Q* Supply recorded Population Membrane Permeable-Phenotype (%) for CN(C)C/C=C/C(=O)Nc1cc2c(Nc3ccc(F)c(Cl)c3)ncnc2cc1O[C@H]1CCOC1.O=C(O)/C=C\C(=O)O.O=C(O)/C=C\C(=O)O [AFATINIB DIMALEATE] here.
*A* 29

*Q* Supply measured Population Membrane Permeable-Phenotype (%) of COc1cc2c(Nc3ccc(NC(=O)c4ccccc4)cc3)ncnc2cc1OCCCN1CCOCC1 in your reply.
*A* 14

====

Reported Population Fragmented Nuclei (%) values follow for various compounds
test system: U2OS; test: Multiplex assay against U2OS; format: toxicity, cell-based; conditions: human, 24 h, 10 µM, compound concentration 10 uM, replicate 2
API: value field is a number in %; no unit string.

*Q* Note down Population Fragmented Nuclei (%) recorded for Cl.Cl.Nc1ncnc2c1c(-c1cccc(OCc3ccccc3)c1)cn2[C@H]1C[C@@H](CN2CCC2)C1
*A* 21

*Q* // Input: CCC(=O)O[C@]1(C(=O)SCF)[C@H](C)C[C@H]2[C@@H]3C[C@H](F)C4=CC(=O)C=C[C@]4(C)[C@@]3(F)[C@@H](O)C[C@@]21C [FLUTICASONE PROPIONATE] . Output its Population Fragmented Nuclei (%) only.
*A* 5

// below: Population Fragmented Nuclei (%) requested for another compound
*Q* Output measured Population Fragmented Nuclei (%) for this item: CNC(=O)c1cc(Oc2ccc(NC(=O)Nc3cc(C(C)(C)C)nn3-c3ccc4ncccc4c3)c(F)c2)ccn1 [REBASTINIB]
*A* 15

====

The compounds listed here are annotated with their Growth Rate.
tested on: U2OS; assay: Incucyte cell viability with U2OS; type: toxicity, cell-based; conditions: human, 24 h, 10 µM, compound concentration 10 uM, replicate number 1, timepoint 24 hours; also: filed as whole numbers so only -1 and 0 and 1 occur
The answer should be a number; do not append a unit.

Some solved cases for reference:
*Q* In one line, give reported Growth Rate of the entry CCC(=O)N[C@H]1CC[C@@H](C(=O)N(C)c2ccc(-c3nc4ccccc4o3)cc2)C1 .
*A* 1

*Q* Provide one value: measured Growth Rate of c1ccc2oc(-c3csc(C4CCN(Cc5nc6ncccc6[nH]5)CC4)n3)cc2c1
*A* 1

*Q* Look up and state reported Growth Rate for C[C@H](CO)Nc1nc(SCc2cccc(Cl)c2F)nc2[nH]c(=O)sc12
*A* 1

*Q* Specify Growth Rate for CO[C@H]1/C=C/O[C@@]2(C)Oc3c(C)c(O)c4c(O)c(c(/C=N/N5CCN(C)CC5)c(O)c4c3C2=O)NC(=O)/C(C)=C\C=C\[C@H](C)[C@H](O)[C@@H](C)[C@@H](O)[C@@H](C)[C@H](OC(C)=O)[C@@H]1C and stop.
*A* 0

*Q* Give Growth Rate for the following compound: COc1ccc(/C=C/CCCCOc2ccc(C(=O)c3cccc(C(=O)O)c3)cc2CCC(=O)O)cc1
*A* 1

*Q* Check the records and state Growth Rate for Nc1nc(NCc2ccccc2)nc(-c2cccc(CO)c2)n1
*A* 1

Continuing:
*Q* Report Growth Rate, nothing else, for this compound: CC(C)N1CCC(C)(C)c2cc(C#Cc3ccc(C(=O)O)cc3)ccc21
*A* 1

*Q* Hello, please tell me recorded Growth Rate for this one: CNc1cc2[nH]c(=O)n(-c3ccc(NC(=O)NS(=O)(=O)c4ccc(Cl)s4)cc3)c(=O)c2cc1F
*A* 0

*Q* Let me know recorded Growth Rate for CCN1CCN(Cc2ccc(NC(=O)c3ccc(C)c(Oc4ccnc5[nH]ccc45)c3)cc2C(F)(F)F)CC1.Cl.Cl.Cl.O , thanks.
*A* 0
